// reported IC50 for each item listed
- TESTED TARGET: Human DPP4 (Homo sapiens, UniProt P27487)
- Construct: purchased Sigma-Aldrich MAK088
- Sequence (P27487 whole entry): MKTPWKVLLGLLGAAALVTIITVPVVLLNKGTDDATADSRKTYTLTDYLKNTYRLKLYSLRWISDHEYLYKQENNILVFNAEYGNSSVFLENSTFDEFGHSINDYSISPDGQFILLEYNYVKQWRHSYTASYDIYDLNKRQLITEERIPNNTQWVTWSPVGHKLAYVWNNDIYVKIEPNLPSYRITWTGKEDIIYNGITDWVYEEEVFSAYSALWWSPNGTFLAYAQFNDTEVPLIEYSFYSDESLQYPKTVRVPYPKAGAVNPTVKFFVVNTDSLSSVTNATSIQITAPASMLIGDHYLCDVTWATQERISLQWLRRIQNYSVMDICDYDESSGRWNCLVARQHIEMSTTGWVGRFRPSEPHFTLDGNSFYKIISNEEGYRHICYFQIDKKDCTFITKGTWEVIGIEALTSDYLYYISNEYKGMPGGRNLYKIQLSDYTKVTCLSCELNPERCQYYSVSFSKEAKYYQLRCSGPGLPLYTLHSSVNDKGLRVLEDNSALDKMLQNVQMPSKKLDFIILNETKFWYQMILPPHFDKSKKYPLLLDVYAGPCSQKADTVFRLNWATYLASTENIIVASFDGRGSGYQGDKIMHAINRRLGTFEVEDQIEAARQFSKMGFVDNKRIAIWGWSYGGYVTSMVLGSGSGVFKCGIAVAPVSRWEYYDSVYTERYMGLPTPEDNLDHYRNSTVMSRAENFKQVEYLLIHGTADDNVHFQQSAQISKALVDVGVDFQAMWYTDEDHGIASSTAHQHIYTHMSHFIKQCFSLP
- TEST PROTOCOL: DPP4 activity assay (DPP4 Activity Assay Kit, fluorescent substrate)
- Format: biochemical
- CONDITION LABEL: Human DPP4; read-out: DPP4 inhibition IC50 [nM])
ENDPOINT: IC50 (nM)

1. CC#CCn1c(N2CCC[C@@H](N)C2)nc2c1c(=O)n(Cc1ccc(C(=O)O)cc1)c(=O)n2C :: 10.5
2. N[C@@H](CC(=O)N1CCn2c(C(F)(F)F)nc(C(=O)OCCCCN3CCOCC3)c2C1)Cc1cc(F)c(F)cc1F :: 0.5
3. CCCCCCN(Cc1cn(CCOCCOCCNC(=O)c2nc(C(F)(F)F)n3c2CN(C(=O)C[C@H](N)Cc2cc(F)c(F)cc2F)CC3)nn1)CC(O)C(O)C(O)C(O)CO (stereo partly drawn) :: 2.2

---

- TEST PROTOCOL: Pharmacokinetic profiling, plasma and lung levels after intratracheal delivery in the rat
- Assay type: in vivo
- CONDITION LABEL: inhaled or intranasal, Male, Sprague Dawley strain, 2 mg/kg, 1 mg/ml in PBS, Lung
ENDPOINT: Tmax (min)

1) CCCCCCN(Cc1cn(CCOCCOCCOC(=O)c2nc(C(F)(F)F)n3c2CN(C(=O)C[C@H](N)Cc2cc(F)c(F)cc2F)CC3)nn1)C[C@H](O)[C@@H](O)[C@H](O)[C@H](O)CO [Compound 46] :: 15

---

- TEST PROTOCOL: Pharmacokinetic profiling, plasma and lung levels after intratracheal or inhalation delivery in the mouse
- Format: in vivo
- CONDITION LABEL: inhaled or intranasal; Mouse; Male; CD-1 strain; Inhalation; 10 mg/ml in PBS for 15 mins; Plasma; read-out: AUC0-inf
ENDPOINT: AUC0-inf (ng·h/mL)

1) CCCCCCN(Cc1cn(CCOCCOCCOC(=O)c2nc(C(F)(F)F)n3c2CN(C(=O)C[C@H](N)Cc2cc(F)c(F)cc2F)CC3)nn1)C[C@H](O)[C@@H](O)[C@H](O)[C@H](O)CO [Compound 46] :: 55.2

---

- TEST PROTOCOL: Pharmacokinetic profiling, plasma and lung levels after intratracheal or inhalation delivery in the mouse
- Format: in vivo
- CONDITION LABEL: inhaled or intranasal; Mouse; Male; CD-1 strain; Intratracheal; 2 mg/kg; 1 mg/ml in PBS; Plasma
ENDPOINT: Cmax (ng/mL)

1. CCCCCCN(Cc1cn(CCOCCOCCOC(=O)c2nc(C(F)(F)F)n3c2CN(C(=O)C[C@H](N)Cc2cc(F)c(F)cc2F)CC3)nn1)C[C@H](O)[C@@H](O)[C@H](O)[C@H](O)CO :: 435

---

- TEST PROTOCOL: Pharmacokinetic profiling, plasma and lung levels after intratracheal delivery in the rat
- Assay type: in vivo
- CONDITION LABEL: inhaled or intranasal, Male, Sprague Dawley strain, 2 mg/kg, 1 mg/ml in PBS, Plasma
ENDPOINT: half-life

1. CCCCCCN(Cc1cn(CCOCCOCCOC(=O)c2nc(C(F)(F)F)n3c2CN(C(=O)C[C@H](N)Cc2cc(F)c(F)cc2F)CC3)nn1)C[C@H](O)[C@@H](O)[C@H](O)[C@H](O)CO :: 68.8 h

---

- TEST PROTOCOL: Pharmacokinetic profiling, plasma and lung levels after intratracheal delivery in the rat
- Format: in vivo
- CONDITION LABEL: inhaled or intranasal, Male, Sprague Dawley strain, 2 mg/kg, 1 mg/ml in PBS, Plasma, read-out: MRT0-inf
ENDPOINT: MRT inf (h)

1. CCCCCCN(Cc1cn(CCOCCOCCOC(=O)c2nc(C(F)(F)F)n3c2CN(C(=O)C[C@H](N)Cc2cc(F)c(F)cc2F)CC3)nn1)C[C@H](O)[C@@H](O)[C@H](O)[C@H](O)CO [Compound 46] :: 6

---

- TEST PROTOCOL: Pharmacokinetic profiling, plasma and lung levels after intratracheal or inhalation delivery in the mouse
- Format: in vivo
- CONDITION LABEL: inhaled or intranasal; Mouse; Male; CD-1 strain; Intratracheal; 2 mg/kg; 1 mg/ml in PBS; Plasma
ENDPOINT: Tmax (min)

1) CCCCCCN(Cc1cn(CCOCCOCCOC(=O)c2nc(C(F)(F)F)n3c2CN(C(=O)C[C@H](N)Cc2cc(F)c(F)cc2F)CC3)nn1)C[C@H](O)[C@@H](O)[C@H](O)[C@H](O)CO [Compound 46] :: 15

---

- TEST PROTOCOL: Pharmacokinetic profiling, plasma and lung levels after intratracheal delivery in the rat
- Type: in vivo
- CONDITION LABEL: inhaled or intranasal, Male, Sprague Dawley strain, 2 mg/kg, 1 mg/ml in PBS, Plasma, read-out: AUC0-inf
ENDPOINT: AUC0-inf (ng·h/mL)

1) CCCCCCN(Cc1cn(CCOCCOCCOC(=O)c2nc(C(F)(F)F)n3c2CN(C(=O)C[C@H](N)Cc2cc(F)c(F)cc2F)CC3)nn1)C[C@H](O)[C@@H](O)[C@H](O)[C@H](O)CO [Compound 46] :: 18600

---

- TEST PROTOCOL: Pharmacokinetic profiling, plasma and lung levels after intratracheal or inhalation delivery in the mouse
- Format: in vivo
- CONDITION LABEL: inhaled or intranasal; Mouse; Male; CD-1 strain; Intratracheal; 2 mg/kg; 1 mg/ml in PBS; Lung; read-out: MRT0-inf
ENDPOINT: MRT inf (h)

1. CCCCCCN(Cc1cn(CCOCCOCCOC(=O)c2nc(C(F)(F)F)n3c2CN(C(=O)C[C@H](N)Cc2cc(F)c(F)cc2F)CC3)nn1)C[C@H](O)[C@@H](O)[C@H](O)[C@H](O)CO :: 80.6

---

- TEST PROTOCOL: Pharmacokinetic profiling, plasma and lung levels after intratracheal or inhalation delivery in the mouse
- Assay type: in vivo
- CONDITION LABEL: inhaled or intranasal; Mouse; Male; CD-1 strain; Inhalation; 10 mg/ml in PBS for 15 mins; Lung; read-out: AUC ratio
ENDPOINT: Kp

1. CCCCCCN(Cc1cn(CCOCCOCCOC(=O)c2nc(C(F)(F)F)n3c2CN(C(=O)C[C@H](N)Cc2cc(F)c(F)cc2F)CC3)nn1)C[C@H](O)[C@@H](O)[C@H](O)[C@H](O)CO :: 9240

---

- TEST PROTOCOL: Pharmacokinetic profiling, plasma and lung levels after intratracheal delivery in the rat
- Assay type: in vivo
- CONDITION LABEL: inhaled or intranasal, Male, Sprague Dawley strain, 2 mg/kg, 1 mg/ml in PBS, Plasma
- Method: To assess the time course of the plasma and lung exposure of compounds disclosed herein, rodents were dosed IT with an exemplary compound of the present disclosure. The plasma and lung samples were taken at different time points. The drug levels were measured by LCMS.
ENDPOINT: Tmax (min)

1. CCCCCCN(Cc1cn(CCOCCOCCOC(=O)c2nc(C(F)(F)F)n3c2CN(C(=O)C[C@H](N)Cc2cc(F)c(F)cc2F)CC3)nn1)C[C@H](O)[C@@H](O)[C@H](O)[C@H](O)CO [Compound 46] :: 15

---

- TEST PROTOCOL: Pharmacokinetic profiling, plasma and lung levels after intratracheal or inhalation delivery in the mouse
- Type: in vivo
- CONDITION LABEL: inhaled or intranasal; Mouse; Male; CD-1 strain; Inhalation; 10 mg/ml in PBS for 15 mins; Plasma; read-out: MRT0-inf
ENDPOINT: MRT inf (h)

1) CCCCCCN(Cc1cn(CCOCCOCCOC(=O)c2nc(C(F)(F)F)n3c2CN(C(=O)C[C@H](N)Cc2cc(F)c(F)cc2F)CC3)nn1)C[C@H](O)[C@@H](O)[C@H](O)[C@H](O)CO :: 1.69

---

// reported IC50 for each item listed
- TESTED TARGET: Human DPP4 (Homo sapiens, UniProt P27487)
- Construct: purchased Sigma-Aldrich MAK088
- TEST PROTOCOL: DPP4 activity assay (DPP4 Activity Assay Kit, fluorescent substrate)
- Type: biochemical
- CONDITION LABEL: Human DPP4; read-out: DPP4 inhibition IC50 [nM])
ENDPOINT: IC50

1) N[C@@H](CC(=O)N1CCn2c(C(F)(F)F)nc(C(=O)OCCCCCN3CCOCC3)c2C1)Cc1cc(F)c(F)cc1F :: 1 nM
2) N[C@@H](CC(=O)N1CCn2c(C(F)(F)F)nc(C(=O)OCCOCCOCCn3cc(CNC[C@H](O)[C@@H](O)[C@H](O)[C@H](O)CO)nn3)c2C1)Cc1cc(F)c(F)cc1F :: 0.11 nM
3) CCN(Cc1ccc(CNC(=O)OCCOCCO[C@@]23CC4C[C@@H](C[C@@](NCC(=O)N5CCC[C@H]5C#N)(C4)C2)C3)cc1)C[C@H](O)[C@@H](O)[C@H](O)[C@H](O)CO :: 7.9 nM
